Target: HLA-A*3101 (human)
Test: competition vs 125I probe peptide, purified HLA
Details: remark: other sources report otherwise
Listed binders paired with reported pIC50
Kindly note that pIC50 refers to -log10 of the concentration in mol/L and answer with the value alone.

Sample records with pIC50:
INSERT INTO assay_data (binder, result) VALUES
  ('LVARNVLVK (modifications not checked) [Her2/neu.846.V2]', 5.05),
  ('LLDHVRENR [Her2/neu.806]', 6.30);

Would you kindly share the measured pIC50 for VVFGILIKRR [Her2/neu.669 (10-mer)] ?
6.54
